Listing of entries alongside the reported inhibition.
target: Fibroblast growth factor receptor 1 (Homo sapiens); conditions: at 1 µM;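 also: values are the mean percent inhibition of FGFR1 across replicate measurements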
I only need the number, in %, no unit after it.

# STRUCTURE_SMILES_STRING, inhibition (%)
data = [
    ("COc1cc(N2CCN(C(C)C)CC2)ccc1Nc1nc(Nc2cccc(F)c2C(=O)O)c2cc[nH]c2n1", 6.27),
    ("NS(=O)(=O)c1cccc(N/C=C2\\C(=O)Nc3ccccc32)c1", 8.92),
    ("NS(=O)(=O)c1ccc(N/N=C2\\C(=O)Nc3cccc(CCc4ccncc4)c32)cc1", 16.7),
    ("O=C(Nc1n[nH]c2nnc(-c3cccnc3)cc12)C1CC1", -1.08),
    ("N#Cc1ccc2c(-c3ccnc(NC4CC4)n3)c(-c3ccc(F)cc3)nn2c1", 1.96),
    ("N#Cc1cccc(Nc2ncc(-c3ccccc3)o2)c1", 2.95),
    ("CCn1c(-c2nonc2N)nc2cncc(C(=O)NCCNC)c21", 4.72),
    ("CS(=O)(=O)CCNCc1ccoc1-c1ccc2ncnc(Nc3ccc(OCc4ccccc4)cc3)c2c1", 2.44),
    ("Cc1c2ccc(N(C)c3ccnc(Nc4cccc(S(N)(=O)=O)c4)n3)cc2nn1C", 62.6),
]

Now for a further compound.
inhibition in this record for CS(=O)(=O)CCNCc1ccc(-c2ccc3ncnc(Nc4ccc(OCc5ccccc5)cc4)c3c2)o1 : 3.85
